Test system: 3798 S. aureus (GISA)
Experiment: MIC, broth microdilution in Meuller-Hinton broth (NCCLS)
Format: cell-based, Staphylococus aureus
Conditions: glycopeptides-intermediate clinical isolate
Description: Antibacterial activity in vitro was investigated by broth microdilution method in Meuller-Hinton broth as recommended by NCCLS. All strains tested were clinical isolates either sensitive or resistant to natural glycopeptides. Results are reported in the tables as MIC (minimal inhibitory concentration) in μg/ml. […]
measurement kind: MIC 3798 S. aureus (GISA) (mg/L)
The figure you give is taken to be in mg/L; do not add the unit.

Value lookup for MIC 3798 S. aureus (GISA); key = CNC(CC(C)C)C(=O)NC1C(=O)NC(CC(N)=O)C(=O)NC2C(=O)NC3C(=O)NC(C(=O)NC(C(=O)NC4C5CC6CC(C5)CC4C6)c4cc(O)cc(O)c4-c4cc3ccc4O)C(OC3CC(C)(N)C(O)C(C)O3)c3ccc(cc3)Oc3cc2cc(c3OC2OC(CO)C(O)C(O)C2OC2CC(C)(N)C(O)C(C)O2)Oc2ccc(cc2Cl)C1O (stereo not drawn)
2

Value lookup for MIC 3798 S. aureus (GISA); key = CCCCCCCCOc1ccc(CNCC(=O)NC2(C)CC(OC3C(Oc4c5cc6cc4Oc4ccc(cc4Cl)C(O)C4NC(=O)C(NC(=O)C6NC(=O)C(CC(N)=O)NC(=O)C(NC(=O)C(CC(C)C)NC)C(O)c6ccc(c(Cl)c6)O5)c5ccc(O)c(c5)-c5c(O)cc(O)cc5C(C(=O)NCc5ccc(F)cc5)NC4=O)OC(CO)C(O)C3O)OC(C)C2O)cc1 (stereo not drawn)
4

Value lookup for MIC 3798 S. aureus (GISA); key = CCCCCCCCOc1ccc(CNC(CCCN)C(=O)NC2(C)CC(OC3C(Oc4c5cc6cc4Oc4ccc(cc4Cl)C(O)C4NC(=O)C(NC(=O)C6NC(=O)C(CC(N)=O)NC(=O)C(NC(=O)C(CC(C)C)NC)C(O)c6ccc(c(Cl)c6)O5)c5ccc(O)c(c5)-c5c(O)cc(O)cc5C(C(=O)O)NC4=O)OC(CO)C(O)C3O)OC(C)C2O)cc1 (stereo not drawn)
2

Value lookup for MIC 3798 S. aureus (GISA); key = CNC(CC(C)C)C(=O)NC1C(=O)NC(CC(N)=O)C(=O)NC2C(=O)NC3C(=O)NC(C(=O)NC(C(=O)O)c4cc(O)cc(O)c4-c4cc3ccc4O)C(OC3CC(C)(N)C(O)C(C)O3)c3ccc(cc3)Oc3cc2cc(c3OC2OC(CO)C(O)C(O)C2OC2CC(C)(NC(=O)CNCc3ccc(C(F)(F)F)cc3)C(O)C(C)O2)Oc2ccc(cc2Cl)C1O (stereo not drawn)
4

Value lookup for MIC 3798 S. aureus (GISA); key = CCCCc1ccc(CNCC(=O)NC2(C)CC(OC3C(Oc4c5cc6cc4Oc4ccc(cc4Cl)C(O)C4NC(=O)C(NC(=O)C6NC(=O)C(CC(N)=O)NC(=O)C(NC(=O)C(CC(C)C)NC)C(O)c6ccc(c(Cl)c6)O5)c5ccc(O)c(c5)-c5c(O)cc(O)cc5C(C(=O)NCc5ccc(F)cc5)NC4=O)OC(CO)C(O)C3O)OC(C)C2O)cc1 (stereo not drawn)
2
